target: E3 ubiquitin-protein ligase Mdm2 (Homo sapiens) (UniProt Q00987); test: increase of MDM2 autoubiquitination reporter luminescence – cell-based, 1536-well, MDM2 E3 ligase inhibitor project, primary screen (AID 1230); conditions: cell-based MDM2 ubiquitination luciferase reporter, 2 h; at 5 µM; stronger effect = higher value; 0 = plate control, 100 = twice control, blank-subtracted;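 also: luminescence tracks abundance of the self-degrading MDM2-luciferase fusion protein; higher signal means inhibition of MDM2 E3 ligase activity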
Sequence (Q00987 whole entry, looked up, the tested form may be a part): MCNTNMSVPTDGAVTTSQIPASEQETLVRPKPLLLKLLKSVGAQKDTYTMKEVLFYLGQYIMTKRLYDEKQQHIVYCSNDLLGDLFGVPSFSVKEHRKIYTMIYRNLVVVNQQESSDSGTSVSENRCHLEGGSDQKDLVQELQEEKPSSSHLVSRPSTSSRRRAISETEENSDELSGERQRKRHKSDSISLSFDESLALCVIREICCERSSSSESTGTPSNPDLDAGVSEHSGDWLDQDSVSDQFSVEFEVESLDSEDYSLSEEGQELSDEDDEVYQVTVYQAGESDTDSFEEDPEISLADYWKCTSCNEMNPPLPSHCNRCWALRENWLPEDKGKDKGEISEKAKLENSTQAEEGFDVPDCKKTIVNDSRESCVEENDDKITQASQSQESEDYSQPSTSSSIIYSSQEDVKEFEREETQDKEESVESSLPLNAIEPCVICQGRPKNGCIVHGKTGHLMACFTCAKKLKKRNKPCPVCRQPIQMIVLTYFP
About 220 (0.1%) of roughly 210,000 compounds were called active. The full list was thinned out, with actives kept by preference.
Property: signal enhancement; scope: individual compounds
Reply numerically in %, unit not repeated.

N#CCC(=O)N/N=C/c1cn(Cc2ccc3ccccc3c2)c2ccccc12    -6.67
CCCN(c1ccc(C)cc1)c1nc(=O)c2cccnc2s1    -10
CSc1nnnn1-c1c(C)cc(C)cc1C    -3.25
COc1ccccc1CNC(=O)Cn1c(=O)oc2cc(Cl)ccc21    -8.67
Cc1onc(NC(=O)c2ccc([N+](=O)[O-])o2)c1Br    -5.7

# input Name the reported signal enhancement value associated with the compound CCCN(CCC)C(=S)Nc1cc(C(=O)OC)ccc1C(=O)OC
# output 39.1

# input Try this compound next: COc1c(N2CCN(C(=S)Nc3ccccc3F)C(C)C2)c(F)cc2c(=O)c(C(=O)O)cn(C3CC3)c12 (configuration not stated)
# output 0.25

# input Try this compound next: COc1ccc(CCNC(=O)C2CC3Cn4c(nc5cc(C)c(C)cc54)C3N2C)cc1 (configuration not stated)
# output 13

# input Try this compound next: CCC/C(C)=N\Nc1nc2c(c(=O)n(C)c(=O)n2C)n1C
# output -9.83

# input Try this compound next: Cc1noc(C)c1COC(=O)COc1ccc(-c2ccccc2)cc1
# output -6.72

---

molecular target: E3 ubiquitin-protein ligase Mdm2 (Homo sapiens) (UniProt Q00987); assay: increase of MDM2 autoubiquitination reporter luminescence – cell-based, 1536-well, MDM2 E3 ligase inhibitor project, primary screen (AID 1230); settings: cell-based MDM2 ubiquitination luciferase reporter, 2 h; at 5 µM; 0 = plate control, 100 = twice control, blank-subtracted;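 also: luminescence tracks abundance of the self-degrading MDM2-luciferase fusion protein; higher signal means inhibition of MDM2 E3 ligase activity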
About 220 (0.1%) of roughly 210,000 compounds were called active.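 Rule for the calls: active = signal enhancement of 30% or more; inactive = the rest.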 The sample holds actives, similar compounds and a random draw of the others, so the mix is not that of the screen.
Reply using exactly one outcome from active, inactive

O=C(NCCCN1CCN(c2ccccc2F)CC1)C1CCC(=O)N1C1CCCCC1 (configuration not stated)    inactive

# input I would be grateful if you could indicate the recorded call for O=C(CCCOc1ccccc1)Nc1cccc(C(=O)O)c1 .
# output inactive

# input Try this molecule next: Cn1c2ccc(F)cc2c2nnc(NN)nc21
# output inactive

# input Try this molecule next: Cc1noc(C)c1-c1nc(CSc2ccc(Cl)cc2)no1
# output inactive

---

molecular target: E3 ubiquitin-protein ligase Mdm2 (Homo sapiens); test: increase of MDM2 autoubiquitination reporter luminescence – cell-based, 1536-well, MDM2 E3 ligase inhibitor project, primary screen (AID 1230); conditions: cell-based MDM2 ubiquitination luciferase reporter, 2 h; at 5 µM; stronger effect = higher value; 0 = plate control, 100 = twice control, blank-subtracted;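 also: luminescence tracks abundance of the self-degrading MDM2-luciferase fusion protein; higher signal means inhibition of MDM2 E3 ligase activity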
Screen size: about 210,000 compounds; about 220 (0.1%) were called active. For the sample, actives were picked, then their nearest neighbours and some compounds at random.
Property: signal enhancement; scope: individual compounds
Reply numerically in %, unit not repeated.

# input Name the reported signal enhancement value associated with the compound COc1ccc2c(CC(=O)OCC(=O)NC(N)=O)coc2c1
# output 0.56

# input Try this compound next: O=C1NNC(c2ccccc2)=N/C1=C\c1ccc(Cl)cc1
# output -9.72

# input Try this compound next: COCc1cc(=O)oc2cc(NS(=O)(=O)c3ccc(C)cc3)ccc12
# output -14.3

# input Try this compound next: O=C(NCCCn1ccnc1)C(=O)NCC1OCCN1S(=O)(=O)c1cc(F)ccc1F (stereo not given)
# output -1.11

# input Try this compound next: Nc1nc(Sc2ncccc2[N+](=O)[O-])n[nH]1
# output 1.65

# input Try this compound next: O=C(NC(=S)Nc1cccc2c(O)cccc12)c1cccc(Br)c1
# output -0.26

# input Try this compound next: CCC(C)(C)NC(=O)C(c1ccc(O)cc1)N(C(=O)Cn1nnc2ccccc21)c1ccc(NC(C)=O)cc1 (stereo not given)
# output -11.7

# input Try this compound next: COc1ccc(CCNC(=O)C(=O)Nc2ccc3nc4n(c(=O)c3c2)CCCCC4)cc1OC
# output 3.62

# input Try this compound next: COc1ccc(/C=C/C(=O)Nc2ccc(C34CC5CC(CC(O)(C5)C3)C4)cc2)cc1OC
# output 45.6

# input Try this compound next: COc1ccc(OC)c(-n2c(-c3ccn[nH]3)n[nH]c2=S)c1
# output -7.17
